molecular target: hSTING(R232) (Homo sapiens, UniProt Q86WV6, H232R); experiment: Luciferase reporter assay in HEK293T-hSTING-Luciferase cells, R232 (wild type) human STING; format: cell-based; settings: 20 hr stimulation, read-out: R232 human activity (EC50 range)
Sequence (Q86WV6 whole entry H232R): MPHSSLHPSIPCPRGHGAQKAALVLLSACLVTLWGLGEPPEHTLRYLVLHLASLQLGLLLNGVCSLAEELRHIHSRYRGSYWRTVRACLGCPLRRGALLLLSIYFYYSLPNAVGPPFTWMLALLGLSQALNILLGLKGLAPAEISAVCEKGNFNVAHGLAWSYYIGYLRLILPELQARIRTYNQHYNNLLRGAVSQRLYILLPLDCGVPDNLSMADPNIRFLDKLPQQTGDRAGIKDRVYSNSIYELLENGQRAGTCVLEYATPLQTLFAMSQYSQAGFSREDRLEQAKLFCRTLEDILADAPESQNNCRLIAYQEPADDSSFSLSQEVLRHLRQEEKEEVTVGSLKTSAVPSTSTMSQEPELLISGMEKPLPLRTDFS
pEC50: −log10 of the molar value. Structures can show the parent of a compound that is named as a salt.
Measured Parameter: pEC50

Would you please look over these solved cases?
* COc1cccc(F)c1CN1C(=O)N(C)C(C)c2ccc(C(=O)NCc3c(F)cc(F)cc3F)cc21 (stereo not drawn) [Example 154] | > 6.00
* COc1ccc(F)c(F)c1CN1C(=O)N(C)C(C)c2ccc(C(=O)NCc3c(F)cc(F)cc3F)cc21 (stereo not drawn) [Example 178] | > 6.00
* C=CCOc1cc(F)c(CN2C(=O)N(C)[C@@H](C)c3ccc(C(=O)NCc4c(F)cc(F)cc4F)cc32)c(F)c1 [Example 144] | > 6.00

Please look at the items below and tell me pEC50 for each one, in order.
1. CN1Cc2ccc(C(=O)NCc3c(F)cc(F)cc3F)cc2N(Cc2c(Cl)cccc2Cl)C1=O [Example 62]
2. CC1c2ccc(C(=O)NCc3c(F)cc(F)cc3F)cc2N(Cc2cc(F)cc(F)c2)C(=O)N1C (stereo not drawn) [Example 157]
3. C[C@H]1c2ccc(C(=O)NCc3c(F)cc(F)cc3F)cc2N(Cc2c(F)cc(OCCCC(=O)O)cc2F)C(=O)N1C [Example 294]
4. C[C@H]1c2ccc(C(=O)NCc3c(F)cc(F)cc3F)cc2N(Cc2c(F)ccc(OCCCOP(=O)(O)O)c2F)C(=O)N1C [Example 104]
5. COc1cc(F)cc(F)c1CN1C(=O)N(C)[C@@H](C)c2ccc(C(=O)NCc3c(F)cc(F)cc3F)cc21 [Example 259]

result:
1. 5.00 to 6.00
2. > 6.00
3. > 6.00
4. > 6.00
5. > 6.00

Record pEC50 per entry; entries follow.
1. C[C@H]1c2ccc(C(=O)NCc3c(F)cc(F)cc3F)cc2N(Cc2c(F)ccc(OCCO)c2Cl)C(=O)N1C [Example 137]
2. C[C@H]1c2ccc(C(=O)NCc3c(F)cc(F)cc3F)cc2N(Cc2c(F)cccc2NCCCO)C(=O)N1C [Example 278]

result:
1. > 6.00
2. > 6.00

For each entry beneath this line, provide reported pEC50.
1. C[C@H]1c2ccc(C(=O)NCc3c(F)cc(F)cc3F)cc2N(Cc2c(F)ccc(N)c2Cl)C(=O)N1C [Example 188]
2. CC1c2ccc(C(=O)NCc3ccc(F)cc3F)cc2N(Cc2ccccc2F)C(=O)N1C (stereo not drawn) [Example 197]
3. CN1Cc2ncc(C(=O)NCc3c(F)cc(F)cc3F)cc2N(Cc2c(F)cccc2Cl)C1=O [Example 71]
4. C[C@H]1c2ccc(C(=O)NCc3c(F)cc(F)cc3F)cc2N(Cc2c(F)cccc2NCCO)C(=O)N1C [Example 264, hydrochloride]
5. CN1Cc2ccc(C(=O)NCc3cccc(-c4ccnn4C)c3)cc2N(Cc2c(F)cccc2Cl)C1=O [Example 29]

result:
> 6.00
> 6.00
5.00 to 6.00
> 6.00
< 5.00

====

target: hSTING(R232) (Homo sapiens, UniProt Q86WV6, H232R); test: Luciferase reporter assay in HEK293T-hSTING-Luciferase cells, R232 (wild type) human STING; assay type: cell-based; conditions: 20 hr stimulation, read-out: R232 human activity (EC50 range)
Measured Parameter: EC50

Consider the worked cases shown below.
* C[C@H]1c2ccc(C(=O)NCc3c(F)cc(F)cc3F)cc2N(Cc2c(F)ccc(OC(=O)N(C)CCC(=O)OCc3ccccc3)c2Cl)C(=O)N1C [Example 140] | > 10000 nM
* CN1Cc2ccc(C(=O)NCc3cc4cc([N+](=O)[O-])ccc4o3)cc2N(Cc2c(F)cccc2Cl)C1=O [Example 48] | > 10000 nM
* Cc1ccc(F)c(CN2C(=O)N(C)C(C)c3ccc(C(=O)NCc4c(F)cc(F)cc4F)cc32)n1 (centres unmarked) [Example 238] | < 1000 nM
* Cc1cc(CN2C(=O)N(C)Cc3ccc(C(=O)NCc4c(F)cc(F)cc4F)cc32)on1 [Example 54] | 1000 to 10000 nM

Quick one: give me EC50 for each item below, same order please.
1. Cc1cccc(C)c1CN1C(=O)N(C)C(C)c2ccc(C(=O)NCc3c(F)cc(F)cc3F)cc21 (centres unmarked) [Example 215]
2. CC1c2ccc(C(=O)NCc3c(F)cc(F)cc3F)cc2N(Cc2ccc(OCC(=O)O)cc2F)C(=O)N1C (centres unmarked) [Example 228]
3. CN1Cc2ccc(C(=O)NCc3c(F)cc(F)cc3F)cc2N(Cc2cc(F)cc(F)c2)S1(=O)=O [Example 70]
4. CC1c2ccc(C(=O)NCc3ccc(OCC(=O)O)cc3)cc2N(Cc2c(F)cccc2Cl)C(=O)N1C (centres unmarked) [Example 240]
5. Cc1ccc(CN2C(=O)N(C)[C@@H](C)c3ccc(C(=O)NCc4c(F)cc(F)cc4F)cc32)c(F)c1 [Example 170]

result:
["< 1000 nM", "> 10000 nM", "1000 to 10000 nM", "> 10000 nM", "< 1000 nM"]

Please look at the items below and tell me EC50 for each one, in order.
1. CC1c2ccc(C(=O)NCc3c(F)cc(F)cc3F)cc2N(Cc2c(F)cccc2F)C(=O)N1C (centres unmarked) [Example 205]
2. C[C@H]1c2ccc(C(=O)NCc3c(F)cc(F)cc3F)cc2N(Cc2c(F)ccc(OCOP(=O)(O)O)c2Cl)C(=O)N1C [Example 90]
3. Cc1ccc(CNC(=O)c2ccc3c(c2)N(Cc2c(F)cccc2Cl)C(=O)N(C)C3C)o1 (centres unmarked) [Example 212]

result:
1: < 1000 nM; 2: < 1000 nM; 3: < 1000 nM

====

molecular target: hSTING(R232) (Homo sapiens, UniProt Q86WV6, H232R); assay: Luciferase reporter assay in HEK293T-hSTING-Luciferase cells, R232 (wild type) human STING; type: cell-based; settings: 20 hr stimulation, read-out: R232 human activity (EC50 range)
Measured Parameter: EC50

Some compounds with known EC50 results, for comparison:
• COc1cc(F)c(F)c(CN2C(=O)N(C)[C@@H](C)c3ccc(C(=O)NCc4c(F)cc(F)cc4F)cc32)c1 = < 1000 nM
• Cc1ccc(Cl)c(CN2C(=O)N(C)Cc3ccc(C(=O)NCc4c(F)cc(F)cc4F)cc32)c1F = < 1000 nM

Could I get EC50 for every one of these entries?
1. CN1Cc2ccc(C(=O)NCc3ccc4c(c3)CC(=O)N4)cc2N(Cc2c(F)cccc2Cl)C1=O
2. Cc1nn(C)c(CN2C(=O)N(C)Cc3ccc(C(=O)NCc4c(F)cc(F)cc4F)cc32)c1Br

result:
["> 10000 nM", "1000 to 10000 nM"]

Please supply EC50 for each of the following items, keeping them in order.
1. CN1Cc2ccc(C(=O)NCc3c(F)cc(F)cc3F)cc2N(Cc2cn3cc(F)ccc3n2)C1=O
2. CC1c2ccc(C(=O)NCc3c(F)cc(F)cc3F)cc2N(Cc2ccc(F)cc2)C(=O)N1C (centres unmarked)

result:
["> 10000 nM", "< 1000 nM"]

State recorded EC50 for all listed compounds.
1. CN1Cc2ccc(C(=O)NCc3ccccc3F)cc2N(Cc2c(F)cccc2Cl)C1=O
2. COc1ccc(F)c(CN2C(=O)N(C)C(C)c3ccc(C(=O)NCc4c(F)cc(F)cc4F)cc32)c1 (centres unmarked)

result:
1000 to 10000 nM
< 1000 nM

====

Kindly state pEC50 for each of the entries shown.
target: cynomolgus monkey STING protein (Macaca fascicularis, UniProt A0A2R3XZA6); experiment: Luciferase reporter assay, cynomolgus monkey STING overexpressed in HEK293T cells; assay type: cell-based; settings: cynomolgus monkey STING overexpressed in HEK293T cells; read-out: Cynomolgus monkey STING activity (EC50 range)
Sequence (A0A2R3XZA6 entry or part of it): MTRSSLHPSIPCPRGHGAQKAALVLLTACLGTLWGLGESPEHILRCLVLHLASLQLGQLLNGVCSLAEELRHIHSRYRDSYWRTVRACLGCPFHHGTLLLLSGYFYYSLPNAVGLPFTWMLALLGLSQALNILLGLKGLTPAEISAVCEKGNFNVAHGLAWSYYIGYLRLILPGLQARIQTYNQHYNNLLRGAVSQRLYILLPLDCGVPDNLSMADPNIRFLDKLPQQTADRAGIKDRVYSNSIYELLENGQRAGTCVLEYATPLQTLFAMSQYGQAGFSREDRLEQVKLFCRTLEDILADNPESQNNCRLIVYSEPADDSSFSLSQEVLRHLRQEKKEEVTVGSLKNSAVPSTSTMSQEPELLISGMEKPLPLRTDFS
pEC50: −log10 of the molar value.

// below: answered compounds
* C[C@H]1c2ccc(C(=O)NCc3c(F)cc(F)cc3F)cc2N(Cc2cc(OCCO)cc(F)c2F)C(=O)N1C [Example 282] | 5.00 to 6.00
* C[C@H]1c2ccc(C(=O)NCc3c(F)cc(F)cc3F)cc2N(Cc2c(F)ccc(OCCOP(=O)(O)O)c2F)C(=O)N1C [Example 103] | > 6.00
* C[C@H]1c2ccc(C(=O)NCc3c(F)cc(F)cc3F)cc2N(Cc2c(F)cc(OCCCO)cc2F)C(=O)N1C [Example 81] | > 6.00
* C[C@H]1c2ccc(C(=O)NCc3c(F)cc(F)cc3F)cc2N(Cc2c(F)ccc(C(N)=O)c2F)C(=O)N1C [Example 141] | > 6.00

Record pEC50 for all entries; do not skip any.
1. Cc1nccc(CN2C(=O)N(C)C(C)c3ccc(C(=O)NCc4c(F)cc(F)cc4F)cc32)c1F (centres unmarked) [Example 180]
2. CC(=O)Nc1ccc(COC(=O)Oc2ccc(F)c(CN3C(=O)N(C)[C@@H](C)c4ccc(C(=O)NCc5c(F)cc(F)cc5F)cc43)c2Cl)cc1 [Example 139]
3. Cc1cccc(CN2C(=O)N(C)[C@@H](C)c3ccc(C(=O)NCc4c(F)cc(F)cc4F)cc32)c1F [Example 168]
4. C[C@H]1c2ccc(C(=O)NCc3c(F)cc(F)cc3F)cc2N(Cc2c(F)cc(OCCCC(=O)O)cc2F)C(=O)N1C [Example 294]
5. COc1cc(F)c(CN2C(=O)N(C)[C@@H](C)c3ccc(C(=O)NCc4c(F)cc(F)cc4F)cc32)c(F)c1 [Example 79]
6. C[C@H]1c2ccc(C(=O)NCc3c(F)cc(F)cc3F)cc2N(Cc2cc(O)ccc2F)C(=O)N1C [Example 262]
7. Cc1ccc(Cl)c(CN2C(=O)N(C)[C@@H](C)c3ccc(C(=O)NCc4c(F)cc(F)cc4F)cc32)c1F [Example 169]

result:
1: > 6.00; 2: > 6.00; 3: > 6.00; 4: > 6.00; 5: > 6.00; 6: > 6.00; 7: > 6.00

Please state, for each entry, its recorded pEC50.
1. CC1c2ccc(C(=O)NCc3c(F)cc(F)cc3F)cc2N(Cc2c(F)cccc2F)C(=O)N1C (centres unmarked) [Example 206]
2. C[C@H]1c2ccc(C(=O)NCc3c(F)cc(F)cc3F)cc2N(Cc2c(F)cc(OCCCOP(=O)(O)O)cc2F)C(=O)N1C [Example 82]
3. C[C@H]1c2ccc(C(=O)NCc3c(F)cc(F)cc3F)cc2N(Cc2c(F)cc(F)cc2OCCCO)C(=O)N1C [Example 275]

result:
1: > 6.00; 2: > 6.00; 3: < 5.00
